target: Vascular endothelial growth factor receptor 2 (Homo sapiens, UniProt P35968)
Sequence (P35968 whole entry): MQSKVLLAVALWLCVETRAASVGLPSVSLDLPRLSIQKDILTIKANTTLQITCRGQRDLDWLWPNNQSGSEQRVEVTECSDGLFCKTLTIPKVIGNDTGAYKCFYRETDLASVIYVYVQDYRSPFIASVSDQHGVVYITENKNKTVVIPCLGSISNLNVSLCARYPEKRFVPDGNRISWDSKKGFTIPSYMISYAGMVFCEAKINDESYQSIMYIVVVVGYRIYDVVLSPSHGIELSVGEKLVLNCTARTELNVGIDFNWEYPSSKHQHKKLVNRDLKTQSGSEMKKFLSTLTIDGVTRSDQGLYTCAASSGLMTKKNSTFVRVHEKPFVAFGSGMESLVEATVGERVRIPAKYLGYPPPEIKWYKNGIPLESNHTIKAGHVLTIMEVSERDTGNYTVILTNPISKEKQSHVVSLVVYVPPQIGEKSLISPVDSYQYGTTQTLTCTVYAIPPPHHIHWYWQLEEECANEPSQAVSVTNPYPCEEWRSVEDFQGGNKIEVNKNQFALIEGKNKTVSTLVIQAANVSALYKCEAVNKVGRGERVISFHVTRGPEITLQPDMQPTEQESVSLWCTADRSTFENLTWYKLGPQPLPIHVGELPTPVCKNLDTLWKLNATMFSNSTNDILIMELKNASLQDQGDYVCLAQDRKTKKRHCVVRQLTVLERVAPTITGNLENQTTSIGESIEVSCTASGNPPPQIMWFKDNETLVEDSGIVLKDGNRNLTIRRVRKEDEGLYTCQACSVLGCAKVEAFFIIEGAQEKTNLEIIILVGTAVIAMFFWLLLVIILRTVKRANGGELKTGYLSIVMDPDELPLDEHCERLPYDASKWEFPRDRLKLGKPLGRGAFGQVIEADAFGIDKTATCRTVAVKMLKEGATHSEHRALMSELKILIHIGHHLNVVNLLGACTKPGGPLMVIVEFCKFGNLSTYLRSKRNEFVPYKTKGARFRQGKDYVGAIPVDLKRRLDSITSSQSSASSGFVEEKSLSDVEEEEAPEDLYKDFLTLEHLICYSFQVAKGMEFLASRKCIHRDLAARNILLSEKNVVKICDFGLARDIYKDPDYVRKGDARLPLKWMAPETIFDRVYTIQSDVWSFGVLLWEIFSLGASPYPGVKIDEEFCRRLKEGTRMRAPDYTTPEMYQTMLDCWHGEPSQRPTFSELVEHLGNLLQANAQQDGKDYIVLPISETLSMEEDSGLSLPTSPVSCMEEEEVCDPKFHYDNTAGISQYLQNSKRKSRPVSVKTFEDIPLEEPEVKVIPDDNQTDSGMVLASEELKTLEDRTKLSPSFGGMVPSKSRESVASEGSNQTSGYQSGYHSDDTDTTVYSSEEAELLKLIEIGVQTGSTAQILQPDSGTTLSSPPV
VALUE TYPE: IC50 (nM)

Solved entries (count: 5):
Report IC50 on Vascular endothelial growth factor receptor 2 (Homo sapiens, UniProt P35968) for this entry: Cc1cccc(NC(=O)Nc2ccc(-c3ccc(N)c4c3CNC4=O)cc2)c1
14

Report IC50 on Vascular endothelial growth factor receptor 2 (Homo sapiens, UniProt P35968) for this entry: CC(=O)Nc1ccc(-c2ccc(NC(=O)Nc3cccc(C)c3)cc2)c2c1C(=O)NC2
64

Report IC50 on Vascular endothelial growth factor receptor 2 (Homo sapiens, UniProt P35968) for this entry: Cc1cccc(NC(=O)Nc2ccc(-c3cccc4c3CNC4=O)c(C(F)(F)F)c2)c1
9000

Report IC50 on Vascular endothelial growth factor receptor 2 (Homo sapiens, UniProt P35968) for this entry: O=C(Nc1ccc(-c2cccc3c2CNC3=O)cc1)Nc1ccc2c(c1)CCC2
39

Report IC50 on Vascular endothelial growth factor receptor 2 (Homo sapiens, UniProt P35968) for this entry: O=C(Nc1ccccc1)Nc1ccc(-c2cccc3c2CNC3=O)cc1
1800

P = O=C(Nc1ccc(-c2cccc3c2CNC3=O)cc1)Nc1ccc(C(F)(F)F)cc1
Q = CCc1cc(-c2cccc3c2CNC3=O)ccc1NC(=O)Nc1cccc(C)c1
Which gives the smaller IC50 number: P or Q ? Respond with the label that goes with your answer.
P

a = Cc1cccc(NC(=O)Nc2ccc(-c3cccc4c3CNC4=O)cc2C(F)(F)F)c1
b = COc1cccc(NC(=O)Nc2ccc(-c3cccc4c3CNC4=O)cc2)c1
Please state the entry with greater IC50 among a and b . Respond with the label that goes with your answer.
b
(b: 570 nM, a: 34 nM)

---

biological target: Vascular endothelial growth factor receptor 2 (Homo sapiens, UniProt P35968)
VALUE TYPE: IC50 (nM)

Solved entries (count: 2):
In one line, give reported IC50 of the entry Cc1cccc(NC(=O)Nc2ccc(-c3ccc(NC(=O)c4cccnc4)c4c3CNC4=O)cc2)c1 .
10

In one line, give reported IC50 of the entry Cc1cccc(NC(=O)Nc2ccc(-c3cccc4c3CNC4=O)c(F)c2)c1 .
52

A = N#Cc1cccc(NC(=O)Nc2ccc(-c3cccc4c3CNC4=O)cc2)c1
B = CC(C)OCc1ccc2c(c1)c1c3c(c4c(c1n2CCCCC(=O)N(C)C)Cc1ccccc1-4)C(=O)NC3
Please state the entry with greater IC50 among A and B . Respond with the label that goes with your answer.
A
(A: 370 nM, B: 18 nM)
